System: NCI-H358 cells
Test: Growth inhibition of KRAS-G12C mutant cell line NCI-H358 (CellTiter-Glo 2.0)
Assay type: cell-based
Conditions: Homo sapiens, 72 h; NCI-H358, 3-day culture with compound
Method: KRAS-G12C mutant human lung cancer cell line NCI-H358 cells (ATCC, Cat #: CRL-5807) were suspended in RPMI1640 medium (manufactured by Fujifilm Wako Pure Chemical Corp.) containing 10% fetal bovine serum. The cell suspension was seeded at 500 cells/well into the wells of a 384-well flat-bottom microplate and cultured at 37° C. for 1 day in an incubator containing 5% CO2. […]
Quick list: IC50 per entry.
Write it as a number; the unit nM goes unstated.

Please review the entries below; each comes with its answer.
entry.smiles | unit.abbrev | IC50
C=CC(=O)N1CC(NC(=O)c2c(C)nc(CNc3cc(C(C)(C)C)c(Cl)cc3O)n2Cc2cccnc2)C1 | nM | 916
C=CC(=O)N1CC(NC(=O)c2c(C)nc(CNc3cc(C(C)(C)C)c(Cl)cc3O)n2CCC)C1 | nM | 511
C=CC(=O)N1CC(NC(=O)c2cnc(CNc3cc(C(C)(C)C)c(Cl)cc3O)n2C)C1 | nM | 562

Shifting focus to the molecule that follows.
## Input Using the record for `C=CC(=O)N1CC(NC(=O)c2c(C)nc(CNc3cc(C(C)(C)C)c(Cl)cc3O)n2CC)C1` , report its IC50.
## Output 281

###

target: KRAS G12C mutant (Homo sapiens, UniProt P01116, G12C); construct: 50 μM G12C K-Ras4B (1-169) protein and 1 mM BODIPY® FL GDP; His tag (N, cleaved yes); made in house; host or cells: E. coli BL21 (DE3); assay: Inhibition of SOS1-mediated nucleotide (GDP-GTP) exchange reaction of KRAS G12C mutant, BODIPY FL GDP fluorescence; type: biochemical; conditions: preincubated 25° C. 4 hours with 25 nM KRAS G12C bound with BODIPY FL GDP; SOS1 100 nM, GppNHp 1 μM, 30 minutes
Quick list: IC50 per entry.
Write it as a number; the unit nM goes unstated.

Please review the entries below; each comes with its answer.
compound | readout.value
C=CC(=O)N1CC(NC(=O)c2cnc(CNc3cc(C4CC4(F)F)c(Cl)cc3O)n2C)C1 (stereo not shown) | 122
C=CC(=O)N1CC(N(C)C(=O)c2ccc(CNc3cc(OC(F)(F)F)c(Cl)cc3O)o2)C1 | 1140
C=CC(=O)N1CC(NC(=O)c2cnc(CNc3cc(C4(C)CC4(F)F)c(Cl)cc3O)n2C)C1 (stereo not shown) | 37

Shifting focus to the compound that follows.
## Input Entry `C=CC(=O)N1CC(NC(=O)c2ccc(CNc3cc(C(C)C)c(Cl)cc3O)o2)C1` , system KRAS G12C mutant (Homo sapiens, UniProt P01116, G12C): what IC50 was measured?
## Output 3970

###

molecular target: KRAS G12C mutant (Homo sapiens, UniProt P01116, G12C); construct: 50 μM G12C K-Ras4B (1-169) protein and 1 mM BODIPY® FL GDP; His tag (N, cleaved yes); made in house; host or cells: E. coli BL21 (DE3); assay: Inhibition of SOS1-mediated nucleotide (GDP-GTP) exchange reaction of KRAS G12C mutant, BODIPY FL GDP fluorescence; type: biochemical; conditions: preincubated 25° C. 4 hours with 25 nM KRAS G12C bound with BODIPY FL GDP; SOS1 100 nM, GppNHp 1 μM, 30 minutes
readout.kind: IC50 (nM)
Write it as a number; the unit nM goes unstated.

entry.smiles | IC50 [nM]
C=CC(=O)N1CC(NC(=O)c2nc(CNc3cc(C(C)(C)C)c(Cl)cc3O)cn2C)C1 | 233

## Input Using the record for `C=CC(=O)N1CC(N(C)C(=O)c2cnc(CNc3cc(C(C)(C)C)c(Cl)cc3O)s2)C1` , report its IC50.
## Output 247

## Input Also check `C=CC(=O)N1CC(NC(=O)c2sc(Cc3cc(C(C)(C)C)c(Cl)cc3O)nc2C)C1`
## Output 467

## Input Also check `C=CC(=O)N1CC(NC(=O)c2cn(C)c(CNc3cc(C(C)(C)C)c(Cl)cc3O)n2)C1`
## Output 4680

###

target: G12C K-Ras4B (1-169) (Homo sapiens, UniProt P01116, G12C); construct: G12C K-Ras4B (1-169) protein, which was a KRAS G12C mutant; His tag (N, cleaved yes); made in house; host or cells: E. coli BL21 (DE3); assay: Binding to KRAS G12C mutant, compound binding rate by LC-MS; conditions: final compound concentration 2 μM, 1 μM protein, 2 hours at 25° C.
readout.kind: binding rate for G12C K-Ras4B (1-169)

Please review the entries below; each comes with its answer.
entry.smiles | readout.value
C=CC(=O)N1CC(N(C)C(=O)c2sc(CNc3cc(C(C)(C)C)c(Cl)cc3O)nc2C)C1 | E (less than 20%)
C=CC(=O)N1CC(NC(=O)c2cnc(CNc3cc(C(C)(C)C)cc(C)c3O)n2C)C1 | E (less than 20%)
C=CC(=O)N1CC(NC(=O)c2coc(CNc3cc(C(C)(C)C)c(Cl)cc3O)n2)C1 | A (80% or more)
CN(C)C/C=C/C(=O)N1CC(NC(=O)c2cnc(CNc3cc(C(C)(C)C)c(Cl)cc3O)n2C)C1 | A (80% or more)
CN(C)C/C=C/C(=O)N1CC(N(C)C(=O)c2ccc(CNc3cc(C(C)(C)C)c(Cl)cc3O)o2)C1 | A (80% or more)

## Input Using the record for `C=CC(=O)N1CC(NC(=O)c2c(C)nn(Cc3cc(C(C)(C)C)c(Cl)cc3O)c2C)C1` , report its binding rate for G12C K-Ras4B (1-169).
## Output A (80% or more)

## Input Also check `C=CC(=O)N1CC(NC(=O)c2c(C)nc(CNc3cc(C(C)(C)C)c(Cl)cc3O)n2C2CCCC2)C1`
## Output A (80% or more)

## Input Also check `C=CC(=O)N1CC(NC(=O)c2c(I)nc(CNc3cc(C(C)(C)C)c(Cl)cc3O)n2C)C1`
## Output A (80% or more)

## Input Also check `C=CC(=O)N1CC(NC(=O)c2sc(CNc3cc(C(C)(C)C)c(Cl)cc3O)nc2C)C1`
## Output A (80% or more)

###

molecular target: KRAS G12C mutant (Homo sapiens, UniProt P01116, G12C); construct: 50 μM G12C K-Ras4B (1-169) protein and 1 mM BODIPY® FL GDP; His tag (N, cleaved yes); made in house; host or cells: E. coli BL21 (DE3); experiment: Inhibition of SOS1-mediated nucleotide (GDP-GTP) exchange reaction of KRAS G12C mutant, BODIPY FL GDP fluorescence; type: biochemical; settings: preincubated 25° C. 4 hours with 25 nM KRAS G12C bound with BODIPY FL GDP; SOS1 100 nM, GppNHp 1 μM, 30 minutes
readout.kind: IC50 (nM)
Write it as a number; the unit nM goes unstated.

entry.smiles | IC50 / nM
C=CC(=O)N1CC(NC(=O)c2ccc(CNc3cc(C4CC4)c(Cl)cc3O)o2)C1 | 2090
C=CC(=O)N1CC(N(C)C(=O)c2ccc(CNc3cc(C(C)(C)C)c(Cl)cc3O)o2)C1 | 11

Shifting focus to the compound that follows.
## Input Using the record for `C=CC(=O)N1CC(NC(=O)c2ccc(CNc3cc(C4CCC4)c(Cl)cc3O)o2)C1` , report its IC50.
## Output 5970

###

target: KRAS G12C mutant (Homo sapiens, UniProt P01116, G12C); construct: 50 μM G12C K-Ras4B (1-169) protein and 1 mM BODIPY® FL GDP; His tag (N, cleaved yes); made in house; host or cells: E. coli BL21 (DE3); experiment: Inhibition of SOS1-mediated nucleotide (GDP-GTP) exchange reaction of KRAS G12C mutant, BODIPY FL GDP fluorescence; assay type: biochemical; settings: preincubated 25° C. 4 hours with 25 nM KRAS G12C bound with BODIPY FL GDP; SOS1 100 nM, GppNHp 1 μM, 30 minutes
readout.kind: IC50

Please review the entries below; each comes with its answer.
entry.smiles | target.entity | IC50
Cc1nc(CNc2cc(C(C)(C)C)c(Cl)cc2O)sc1C(=O)NC1CN(C(=O)/C=C/CN(C)C)C1 | KRAS G12C mutant (Homo sapiens, UniProt P01116, G12C) | 109 nM
C=CC(=O)N1CC(NC(=O)c2c(C)nc(CNc3cc(C(C)(C)C)c(C)cc3O)n2C(C)C)C1 | KRAS G12C mutant (Homo sapiens, UniProt P01116, G12C) | 50 nM
C=CC(=O)N1CC(NC(=O)c2c(C)nn(Cc3cc(C(C)(C)C)c(Cl)cc3O)c2C)C1 | KRAS G12C mutant (Homo sapiens, UniProt P01116, G12C) | 65 nM

Shifting focus to the molecule that follows.
## Input Using the record for `C=CC(=O)N1CC(NC(=O)c2csc(CNc3cc(C(C)(C)C)c(Cl)cc3O)n2)C1` , report its IC50.
## Output 58 nM

Values were extracted from patent US12479834B2.
